Cited source: patent EP0942911B1

# measurementTarget: α-1A adrenoreceptor (rat submaxillary gland) (Rattus norvegicus)
# Sequence (P43140 whole entry): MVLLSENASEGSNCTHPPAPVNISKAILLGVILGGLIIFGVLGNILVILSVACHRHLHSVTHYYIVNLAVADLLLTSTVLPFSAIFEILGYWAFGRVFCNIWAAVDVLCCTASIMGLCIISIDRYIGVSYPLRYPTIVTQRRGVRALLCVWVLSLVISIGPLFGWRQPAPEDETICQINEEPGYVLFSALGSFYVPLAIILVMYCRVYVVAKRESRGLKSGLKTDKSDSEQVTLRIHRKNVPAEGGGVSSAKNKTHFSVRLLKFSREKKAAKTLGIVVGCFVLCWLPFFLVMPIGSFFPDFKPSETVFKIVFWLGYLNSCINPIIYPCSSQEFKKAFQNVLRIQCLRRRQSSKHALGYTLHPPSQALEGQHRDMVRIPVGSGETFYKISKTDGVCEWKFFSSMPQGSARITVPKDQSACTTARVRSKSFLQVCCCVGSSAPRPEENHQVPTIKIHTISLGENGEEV
# protocolNotes: biochemical
# Assay type: binding
# measurementConditions: [3H]-prazosin radioligand; rat submaxillary gland membranes; read-out: Radioligand Binding (Ki, nM) 1A (Rat)
Structures can show the parent of a compound that is named as a salt.
compounds and their reported log10 Ki
Field: value | Transform: log10 | Quantity: Ki | Unit: nM

Here are 6 compounds together with their reported answers.
COc1cccc2c1[C@@H]1CN(CCCCn3c(=O)[nH]c4c(sc5c(OC)ccnc54)c3=O)C[C@H]1CO2 [Example 17, dihydrochloride] :: -0.76
COc1cccc2c1[C@H]1CN(CCCCn3c(=O)[nH]c4c(sc5ncc(-c6ccccc6)nc54)c3=O)C[C@@H]1CO2 [Example 9, hydrochloride] :: 0.36
COc1cccc2c1[C@@H]1CN(CCCCn3c(=O)[nH]c4c(sc5cccnc54)c3=O)C[C@@H]1CO2 [Example 1, hydrochloride] :: -1.35
COc1ccc2sc3c(=O)n(CCCCN4C[C@@H]5COc6cccc(OC)c6[C@@H]5C4)c(=O)[nH]c3c2n1 [Example 30, hydrochloride] :: -0.58
COc1cccc2c1[C@@H]1CCN(CCCCn3c(=O)[nH]c4c(sc5nc(Cl)ccc54)c3=O)C[C@H]1CO2 [Example 102, hydrochloride] :: 0.28
COc1cnc2sc3c(=O)n(CCCCN4C[C@@H]5COc6cccc(OC)c6[C@@H]5C4)c(=O)[nH]c3c2n1 [Example 31, hydrochloride] :: -0.65

Request: // fetch log10 Ki; item: COc1cccc2c1[C@@H]1CN(CCCCn3c(=O)[nH]c4c(sc5ccccc54)c3=O)C[C@@H]1CO2 [Example 22, hydrochloride] ; system: α-1A adrenoreceptor (rat submaxillary gland) (Rattus norvegicus)
Response: -0.71

Request: // fetch log10 Ki; item: COc1cccc2c1[C@@H]1CN(CCCCn3c(=O)[nH]c4c(sc5ccc(-c6cccnc6)nc54)c3=O)C[C@@H]1CO2 [Example 56, dihydrochloride] ; system: α-1A adrenoreceptor (rat submaxillary gland) (Rattus norvegicus)
Response: -0.21
